# Tested on: Human immunodeficiency virus 2
# TEST NAME: Antiviral activity against HIV-2 ROD infected in MT4 cells assessed as inhibition of virus-induced cytopathicity
# Assay type: functional, organism-based
# RECORDED CONDITIONS: Human immunodeficiency virus 2, ISOLATE ROD
READOUT NAME: IC50

The examples below pair each entry with its known result.
COc1cc2c(cc1OC)C1=NN(C(=O)Nc3ccc(C)cc3C)C(c3ccccc3)C1C2 (configuration not stated); > 33.4 µM
COc1ccc(C2C3Cc4cc(OC)c(OC)cc4C3=NN2C(=O)Nc2c(C)cccc2C)cc1OC (configuration not stated); > 182 µM

Please report IC50 for every entry that follows.
1. COc1ccc(C2C3Cc4cc(OC)c(OC)cc4C3=NN2C(=O)Nc2ccc(F)cc2)cc1 (configuration not stated)
2. COc1ccc(C2C3Cc4cc(OC)c(OC)cc4C3=NN2C(=O)Nc2ccc(Cl)cc2)cc1OC (configuration not stated)
3. COc1ccc(C2C3Cc4cc(OC)c(OC)cc4C3=NN2C(N)=O)cc1 (configuration not stated)
4. COc1cc2c(cc1OC)C1=NN(C(=O)Nc3ccc(F)c(Cl)c3)C(c3ccc(F)cc3)C1C2 (configuration not stated)
5. COc1cc2c(cc1OC)C1=NN(C(N)=O)C(c3ccc(F)cc3)C1C2 (configuration not stated)
6. COc1cc2c(cc1OC)C1=NN(C(=O)Nc3ccc(C)cc3C)C(c3ccc(F)cc3)C1C2 (configuration not stated)

Result:
1: > 132 µM; 2: > 106 µM; 3: > 150 µM; 4: > 179 µM; 5: > 151 µM; 6: > 198 µM

Please report IC50 for every entry that follows.
1. COc1cc2c(cc1OC)C1=NN(C(=O)Nc3ccc(F)cc3)C(c3ccccc3)C1C2 (configuration not stated)
2. COc1cc2c(cc1OC)C1=NN(C(=O)Nc3ccc(F)cc3)C(c3ccc(F)cc3)C1C2 (configuration not stated)
3. COc1cc2c(cc1OC)C1=NN(C(=O)Nc3ccc(F)cc3)C(c3ccncc3)C1C2 (configuration not stated)
4. COc1cc2c(cc1OC)C1=NN(C(N)=S)C(c3ccccc3)C1C2 (configuration not stated)

Result:
> 68.6 µM
> 119 µM
> 31.9 µM
> 28.4 µM

Attribution: ChEMBL document CHEMBL2203270
